Value source: paper PMC4445471

- TEST_SYSTEM: mPiezo1 (Mus musculus, UniProt E2JF22, E2133Q)
- Construct: full length, 2547 residues, IRES-EGFP pcDNA3.1(-) vector, transfected HEK293T
- Sequence (E2JF22 whole entry E2133Q): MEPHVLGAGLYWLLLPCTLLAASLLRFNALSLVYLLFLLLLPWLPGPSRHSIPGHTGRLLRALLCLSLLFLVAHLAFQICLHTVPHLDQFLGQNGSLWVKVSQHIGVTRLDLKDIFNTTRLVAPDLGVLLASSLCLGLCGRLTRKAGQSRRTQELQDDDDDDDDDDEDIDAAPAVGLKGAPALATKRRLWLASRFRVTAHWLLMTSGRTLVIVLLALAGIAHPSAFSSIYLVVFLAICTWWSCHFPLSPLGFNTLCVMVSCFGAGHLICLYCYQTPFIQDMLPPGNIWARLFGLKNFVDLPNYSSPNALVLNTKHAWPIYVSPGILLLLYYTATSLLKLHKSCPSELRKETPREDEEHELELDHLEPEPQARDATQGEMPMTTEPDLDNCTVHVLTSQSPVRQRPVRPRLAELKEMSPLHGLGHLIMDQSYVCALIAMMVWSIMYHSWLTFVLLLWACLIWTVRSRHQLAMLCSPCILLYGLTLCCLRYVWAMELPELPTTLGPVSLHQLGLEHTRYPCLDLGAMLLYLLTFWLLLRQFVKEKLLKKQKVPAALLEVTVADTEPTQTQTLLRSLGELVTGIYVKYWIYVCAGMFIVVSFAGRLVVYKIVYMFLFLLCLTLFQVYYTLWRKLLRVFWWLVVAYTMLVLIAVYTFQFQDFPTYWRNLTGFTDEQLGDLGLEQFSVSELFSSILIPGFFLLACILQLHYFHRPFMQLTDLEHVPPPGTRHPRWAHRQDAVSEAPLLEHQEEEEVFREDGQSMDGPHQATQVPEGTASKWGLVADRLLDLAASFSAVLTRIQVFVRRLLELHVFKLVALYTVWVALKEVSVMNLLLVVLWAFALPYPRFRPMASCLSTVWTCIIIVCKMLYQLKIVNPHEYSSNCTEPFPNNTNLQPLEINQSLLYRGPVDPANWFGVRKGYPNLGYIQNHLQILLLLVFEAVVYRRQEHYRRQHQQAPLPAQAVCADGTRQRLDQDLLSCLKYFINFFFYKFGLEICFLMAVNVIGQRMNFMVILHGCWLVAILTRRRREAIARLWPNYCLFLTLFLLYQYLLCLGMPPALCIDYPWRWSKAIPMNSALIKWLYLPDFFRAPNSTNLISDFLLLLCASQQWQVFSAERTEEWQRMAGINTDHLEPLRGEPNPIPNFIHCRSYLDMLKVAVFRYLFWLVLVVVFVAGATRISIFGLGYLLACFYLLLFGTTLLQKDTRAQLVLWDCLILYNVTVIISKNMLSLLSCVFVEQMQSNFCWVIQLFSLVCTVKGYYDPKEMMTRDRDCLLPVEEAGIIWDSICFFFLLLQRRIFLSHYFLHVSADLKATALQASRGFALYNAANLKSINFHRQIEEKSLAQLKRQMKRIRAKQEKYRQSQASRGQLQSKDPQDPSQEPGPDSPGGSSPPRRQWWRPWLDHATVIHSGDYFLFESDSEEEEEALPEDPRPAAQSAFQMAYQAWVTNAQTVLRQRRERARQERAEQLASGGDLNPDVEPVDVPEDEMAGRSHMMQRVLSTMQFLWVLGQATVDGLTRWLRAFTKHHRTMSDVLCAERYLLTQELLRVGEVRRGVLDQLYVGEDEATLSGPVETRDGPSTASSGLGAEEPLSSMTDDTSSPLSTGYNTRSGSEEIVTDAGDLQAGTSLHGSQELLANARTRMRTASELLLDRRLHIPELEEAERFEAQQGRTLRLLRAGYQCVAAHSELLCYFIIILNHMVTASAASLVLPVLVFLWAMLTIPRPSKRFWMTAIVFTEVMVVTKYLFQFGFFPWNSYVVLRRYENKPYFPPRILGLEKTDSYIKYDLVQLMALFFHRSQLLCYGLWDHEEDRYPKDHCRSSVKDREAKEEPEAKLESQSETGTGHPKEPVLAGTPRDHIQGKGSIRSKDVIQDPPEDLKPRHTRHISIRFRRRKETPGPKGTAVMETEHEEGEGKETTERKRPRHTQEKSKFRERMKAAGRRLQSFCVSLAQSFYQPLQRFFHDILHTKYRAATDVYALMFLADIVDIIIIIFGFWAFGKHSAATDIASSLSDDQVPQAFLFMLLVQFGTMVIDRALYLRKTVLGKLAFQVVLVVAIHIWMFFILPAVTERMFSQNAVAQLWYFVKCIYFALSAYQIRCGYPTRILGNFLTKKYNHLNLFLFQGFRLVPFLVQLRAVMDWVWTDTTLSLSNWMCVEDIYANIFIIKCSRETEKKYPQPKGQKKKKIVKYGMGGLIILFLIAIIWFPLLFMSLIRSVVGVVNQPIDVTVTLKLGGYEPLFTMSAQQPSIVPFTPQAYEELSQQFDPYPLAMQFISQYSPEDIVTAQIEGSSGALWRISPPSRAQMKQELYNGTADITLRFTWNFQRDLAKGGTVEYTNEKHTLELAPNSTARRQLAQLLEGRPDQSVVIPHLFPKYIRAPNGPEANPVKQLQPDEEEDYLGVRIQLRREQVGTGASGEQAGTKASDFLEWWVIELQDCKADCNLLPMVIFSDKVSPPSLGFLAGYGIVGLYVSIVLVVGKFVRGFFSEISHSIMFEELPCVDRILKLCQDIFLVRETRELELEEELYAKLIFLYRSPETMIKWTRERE
- ASSAY: whole-cell patch clamp, mechanically activated current block
- ASSAY_SETUP: -80 mV; extracellular RR; pH 7.3; room temperature
OBSERVABLE: IC50 (µM)
Return type: number; implicit unit µM.

Q: If you can, please state the reported IC50 value of N.N.N.N.N.N.N.N.N.N.N.N.N.N.[Cl-].[Cl-].[Cl-].[Cl-].[Cl-].[Cl-].[O-2].[O-2].[Ru+3].[Ru+3].[Ru+4] .
Ans: 5.62

---

- TEST_SYSTEM: mPiezo1 (Mus musculus, UniProt E2JF22, E2133D)
- Construct: full length, 2547 residues, IRES-EGFP pcDNA3.1(-) vector, transfected HEK293T
- Sequence (E2JF22 whole entry E2133D): as the sequence (E2JF22 whole entry E2133Q) above, with Q2133D counted along it
- ASSAY: whole-cell patch clamp, mechanically activated current block
- ASSAY_SETUP: -80 mV; extracellular RR; pH 7.3; room temperature
OBSERVABLE: pIC50
In plain terms, pIC50 is the concentration in mol/L turned into minus its base-10 logarithm.

Q: If you can, please state the reported pIC50 value of N.N.N.N.N.N.N.N.N.N.N.N.N.N.[Cl-].[Cl-].[Cl-].[Cl-].[Cl-].[Cl-].[O-2].[O-2].[Ru+3].[Ru+3].[Ru+4] .
Ans: 5.90

---

- TEST_SYSTEM: mPiezo1 (Mus musculus)
- Construct: full length, 2547 residues, IRES-EGFP pcDNA3.1(-) vector, transfected HEK293T
- ASSAY: whole-cell patch clamp, mechanically activated current block
- ASSAY_SETUP: -80 mV; extracellular RR; pH 7.3; room temperature; voltage-dependent pore block
OBSERVABLE: IC50 (µM)
Return type: number; implicit unit µM.

Q: If you can, please state the reported IC50 value of N.N.N.N.N.N.N.N.N.N.N.N.N.N.[Cl-].[Cl-].[Cl-].[Cl-].[Cl-].[Cl-].[O-2].[O-2].[Ru+3].[Ru+3].[Ru+4] [ruthenium red] .
Ans: 4.71
